Entry source: paper PMC12822916

measured.on: eIF3e (Homo sapiens)
Sequence (P60228 2-445): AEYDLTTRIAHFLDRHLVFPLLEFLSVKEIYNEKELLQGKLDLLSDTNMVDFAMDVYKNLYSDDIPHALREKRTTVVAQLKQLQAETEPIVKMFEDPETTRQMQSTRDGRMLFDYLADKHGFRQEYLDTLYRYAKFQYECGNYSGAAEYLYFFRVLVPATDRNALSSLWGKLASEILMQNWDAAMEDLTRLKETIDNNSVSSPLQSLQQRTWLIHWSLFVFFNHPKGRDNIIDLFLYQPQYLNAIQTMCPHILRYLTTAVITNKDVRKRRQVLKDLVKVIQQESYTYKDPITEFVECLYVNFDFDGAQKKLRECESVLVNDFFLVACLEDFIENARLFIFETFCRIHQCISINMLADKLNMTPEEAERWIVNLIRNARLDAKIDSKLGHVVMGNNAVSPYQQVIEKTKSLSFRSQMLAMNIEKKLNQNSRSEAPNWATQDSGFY
method.summary: isothermal dose-response fingerprint CETSA, western blot
condition.description: MCF7-SIX1 lysate, 10 min at room temperature with compound, heated at 53 °C for 3 min; pH 7.5 Tris, 100 mM NaCl, 1 mM DTT
assay.endpoint: pEC50
Reminder that pEC50 means the negative base-10 logarithm of the concentration expressed in mol/L.

Prompt line: Please report the recorded pEC50 for COc1ccc(NC(=O)c2cccc(-n3cccc3)c2)cc1S(=O)(=O)N1CCOCC1 [compound 8430, NCGC00378430] .
Response line: 4.87
